Listing of entries alongside the reported IC50.
Assay target: FGFR2 (Homo sapiens, UniProt P21802)
Construct: purchased Carna 08-134
Sequence (P21802 22-821): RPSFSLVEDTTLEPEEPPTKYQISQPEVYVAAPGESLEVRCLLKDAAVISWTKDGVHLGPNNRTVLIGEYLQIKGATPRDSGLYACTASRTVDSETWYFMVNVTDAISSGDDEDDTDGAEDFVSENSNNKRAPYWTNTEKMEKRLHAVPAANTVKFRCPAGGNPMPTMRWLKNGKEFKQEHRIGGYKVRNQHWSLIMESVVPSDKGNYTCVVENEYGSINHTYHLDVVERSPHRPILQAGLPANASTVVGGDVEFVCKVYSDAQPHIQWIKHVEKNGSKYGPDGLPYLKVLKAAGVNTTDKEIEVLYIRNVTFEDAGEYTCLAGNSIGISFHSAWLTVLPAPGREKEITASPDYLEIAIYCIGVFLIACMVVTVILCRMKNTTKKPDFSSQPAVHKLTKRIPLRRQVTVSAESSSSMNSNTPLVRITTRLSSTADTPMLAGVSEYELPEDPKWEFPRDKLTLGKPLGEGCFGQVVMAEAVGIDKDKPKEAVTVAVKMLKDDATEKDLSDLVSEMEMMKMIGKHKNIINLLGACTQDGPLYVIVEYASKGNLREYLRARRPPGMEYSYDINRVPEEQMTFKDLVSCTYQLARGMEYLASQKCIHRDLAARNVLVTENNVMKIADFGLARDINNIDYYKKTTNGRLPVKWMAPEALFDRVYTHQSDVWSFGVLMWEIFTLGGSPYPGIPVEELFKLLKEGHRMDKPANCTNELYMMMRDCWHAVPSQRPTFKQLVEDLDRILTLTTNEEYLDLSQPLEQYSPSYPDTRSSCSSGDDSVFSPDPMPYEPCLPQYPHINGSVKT
Measurement protocol: FGFR2 Biochemical Caliper Assay (KinEASE-TK kit)
Condition label: 0.07 nM FGFR2; compound incubated with protein 10 min, reaction 45 min at RT; read-out: FGFR2 Cliper IC50

Molecule	Assay target	IC50
C=C(F)C(=O)Nc1ccc(-c2nn3ncnc(N)c3c2-c2ccc(C(=O)NC3CC3)c(OC)c2)c(F)c1 [Compound 153]	FGFR2 (Homo sapiens, UniProt P21802)	< 5 nM
C=CC(=O)Nc1ccc(-c2c(-c3ccc(C(=O)NC4CC4)c(OC)c3)c3c(N)ncc(C#N)c3n2C2CC2)cc1 [Compound 359]	FGFR2 (Homo sapiens, UniProt P21802)	> 10 nM
C=CC(=O)Nc1ccc(-c2nn3ncnc(N)c3c2-c2ccc(Oc3nccc(N)n3)c(F)c2)cc1 [Compound 428]	FGFR2 (Homo sapiens, UniProt P21802)	> 10 nM
C=C(F)C(=O)Nc1ccc(-c2nn3ncnc(N)c3c2-c2ccc(C(=O)NC34CC(C3)C4)c(OC)c2)c(OC)c1 [Compound 426]	FGFR2 (Homo sapiens, UniProt P21802)	< 5 nM
C=CC(=O)Nc1ccc(-c2nn3ncnc(N)c3c2-c2ccc(C(=O)NCC(F)(F)F)c(OC)c2)cn1 [Compound 90]	FGFR2 (Homo sapiens, UniProt P21802)	< 5 nM
C=CC(=O)Nc1ccc(-c2c(-c3ccc(C(=O)NC4CC4)c(OC)c3)c3c(N)ncc(C#N)c3n2CC(F)(F)F)cc1 [Compound 342]	FGFR2 (Homo sapiens, UniProt P21802)	< 5 nM
C=C(C)C(=O)Nc1ccc(-c2c(-c3ccc(Oc4nccc(C)n4)cc3)c3c(N)ncc(C#N)c3n2C)c(C)c1 [Compound 488]	FGFR2 (Homo sapiens, UniProt P21802)	> 10 nM
C=C(F)C(=O)Nc1ccc(-c2[nH]c3c(C#N)cnc(N)c3c2-c2ccc(C(=O)NC3CC3)c(OC)c2)c(F)c1 [Compound 267]	FGFR2 (Homo sapiens, UniProt P21802)	< 5 nM
C=CC(=O)Nc1ccc(-c2nn3ncnc(N)c3c2-c2ccc(C(=O)NC3CCC3)c(C)c2)cc1 [Compound 74]	FGFR2 (Homo sapiens, UniProt P21802)	> 10 nM

----------
Listing of entries alongside the reported AUC(0-inf).
Measurement protocol: Pharmacokinetics in SD Rat
Type: in vivo, Sprague-Dawley (SD) rat
Condition label: Sprague-Dawley; male SD rat, plasma; PO 15 mg/kg (IV used for Clearance)
Measured property: AUC(0-inf) (ng·h/mL)

Compound	Measured property	Reported value
C=C(F)C(=O)Nc1ccc(-c2nn3ncnc(N)c3c2-c2ccc(C(=O)NC3CC3(F)F)c(OC)c2)cc1 (stereo not drawn)	AUC(0-inf)	4570
C=C(F)C(=O)Nc1ccc(-c2nn3ncnc(N)c3c2-c2ccc(C(=O)NC3CC(F)C3)c(OC)c2)cc1 (stereo not drawn)	AUC(0-inf)	1550
C=C(F)C(=O)Nc1ccc(-c2nn3ncnc(N)c3c2-c2ccc(C(=O)NC3(C(F)(F)F)CC3)c(OC)c2)cc1	AUC(0-inf)	3760
C=C(F)C(=O)Nc1ccc(-c2nn3ncnc(N)c3c2-c2ccc(C(=O)NC34CC(F)(C3)C4)c(OC)c2)cc1	AUC(0-inf)	1820
C=C(F)C(=O)Nc1ccc(-c2c(-c3ccc(C(=O)NCC(F)(F)F)c(OC)c3)c3c(N)ncc(C#N)c3n2C)cc1	AUC(0-inf)	2700
C=C(F)C(=O)Nc1ccc(-c2[nH]c3c(C#N)cnc(N)c3c2-c2ccc(C(=O)NC3CC3)c(OC)c2)cc1	AUC(0-inf)	2070
